# assayed.target: recombinant human cIAP1-BIR3 protein (Homo sapiens)
# Construct: recombinant human cIAP1-BIR3 protein; purchased Reaction biology APT-11-370
# Sequence (Q13490 253-363 limits assumed): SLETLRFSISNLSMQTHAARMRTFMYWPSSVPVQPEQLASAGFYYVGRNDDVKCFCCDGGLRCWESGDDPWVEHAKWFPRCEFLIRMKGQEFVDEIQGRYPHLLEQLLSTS
# procedure.summary: Recombinant human c-IAP1-BIR3 biochemical assay (HTRF, peptide displacement)
# recorded.conditions: 1.2 nM cIAP1-BIR3, 3 nM AbuRPF-K(5-Fam)-NH2 peptide, read-out: Protein binding IC50 (nM) c-IAP1
Counter-ions that a name gives are not always drawn.
Label Met when IC50 is strictly below 0.9 nM; otherwise label Not met.

compound | label.value
C[C@@H]1CN(CC(=O)N2CCOc3nc(C(N)=O)c(Cc4ccc(F)cc4)cc32)[C@@H](CN2CCOC[C@H]2C)CN1 [Compound 3, formate] | Not met

[Q] API: query returns whether the compound falls strictly under 0.9 nM in IC50. Query: CC(C)C[C@H]1COc2ncc(Cc3ccc(F)cc3)cc2N1C(=O)CN1C[C@@H](C)NC[C@@H]1CN1CCOC[C@H]1C
[A] Met
